# test_system: T1, RXR-alpha ligand-binding domain (human, UniProt P19793 223-462, limits assumed)
# T1 construct: Bought recombinant protein (Abcam); also called RXRa-LBD; RXR-alpha LBD
# T1 sequence (looked up): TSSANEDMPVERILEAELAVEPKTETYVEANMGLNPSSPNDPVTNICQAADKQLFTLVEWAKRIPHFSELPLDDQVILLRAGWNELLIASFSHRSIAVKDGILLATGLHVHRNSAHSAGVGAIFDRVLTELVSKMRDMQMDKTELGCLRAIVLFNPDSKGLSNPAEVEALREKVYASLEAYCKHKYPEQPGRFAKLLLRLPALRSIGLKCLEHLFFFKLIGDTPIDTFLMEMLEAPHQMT
# assay_comment: plate binding assay, 800 ng/well SA488-labelled peptide on 100 ng/well adsorbed domain
Ends that are not written are not given here. * marks the point of attachment. Biotin = O=C1N[C@H]2[C@H](CS[C@H]2CCCCC(=O)*)N1
observation_type: fluorescence relative to imm3 binding (=100)

1) Biotin-KKGFYKKKQCRPSKGRKRGFCW (cysteine pairing not given here; also: labelled with Streptavidin-Alexa 488 conjugate (SA488), Synthetic immodulin peptide derived from IGFBP-3; also called immodulin peptide-3) [imm3] | 0.6 relative to imm3 binding (=100)
2) Biotin-RKGFYKRKQCKPSRGRKRGICW (cysteine pairing not given here; also: labelled with Streptavidin-Alexa 488 conjugate (SA488), Synthetic immodulin peptide derived from IGFBP-5; also called immodulin peptide-5) [imm5] | 1.8 relative to imm3 binding (=100)
3) Biotin-RNGNFHPKQCHPALDGQRGKCW (cysteine pairing not given here; also: labelled with Streptavidin-Alexa 488 conjugate (SA488), Synthetic immodulin peptide derived from IGFBP-4) [imm4] | 3 relative to imm3 binding (=100)
4) Biotin-HRGFYRKRQCRSSQGQRRGPCW (cysteine pairing not given here; also: labelled with Streptavidin-Alexa 488 conjugate (SA488), Synthetic immodulin peptide derived from IGFBP-6; also called immodulin peptide-6) [imm6] | 1.6 relative to imm3 binding (=100)
